# Test system: ivyleaf morningglory (Ipomoea hederacea, IPOHE)
# assay-notes: Post-emerge test, greenhouse herbicide activity screening
# Assay type: in vivo
# condition: post-emerge, 250 g ai/ha, 14 days after application, rating scale 0-100

[
  {
    "smiles-record": "COc1c(Cl)cc(F)c(-n2c(=O)cc(C(F)(F)F)n(C)c2=O)c1NC(=O)c1c(C)cccc1C",
    "IPOHE phytotoxicity rating": 30
  },
  {
    "smiles-record": "COc1c(Cl)cc(F)c(-n2c(=O)cc(C(F)(F)F)n(C)c2=O)c1NC(=O)CSC(C)C",
    "IPOHE phytotoxicity rating": 80
  },
  {
    "smiles-record": "COc1c(C#N)cc(F)c(-n2c(=O)cc(C(F)(F)F)n(C)c2=O)c1NC(=O)C=Cc1ccccc1",
    "IPOHE phytotoxicity rating": 100
  },
  {
    "smiles-record": "COc1c(Cl)cc(F)c(-n2c(=O)cc(C(F)(F)F)n(C)c2=O)c1NC(=O)C=Cc1ccccc1F",
    "IPOHE phytotoxicity rating": 100
  },
  {
    "smiles-record": "Cn1c(C(F)(F)F)cc(=O)n(-c2ccc(C#N)cc2NC(=O)c2ccc3ccccc3c2)c1=O",
    "IPOHE phytotoxicity rating": 100
  },
  {
    "smiles-record": "COc1c(Br)cc(F)c(-n2c(=O)cc(C(F)(F)F)n(C)c2=O)c1N(C(=O)C=Cc1ccccc1)C(=O)C=Cc1ccccc1",
    "IPOHE phytotoxicity rating": 20
  },
  {
    "smiles-record": "COc1c(C#N)cc(F)c(-n2c(=O)cc(C(F)(F)F)n(C)c2=O)c1NC(=O)c1ccc2ccccc2c1",
    "IPOHE phytotoxicity rating": 100
  },
  {
    "smiles-record": "CCOC(=O)CSCC(=O)Nc1c(OC)c(Cl)cc(F)c1-n1c(=O)cc(C(F)(F)F)n(C)c1=O",
    "IPOHE phytotoxicity rating": 95
  }
]

---

# Tested on: velvetleaf (Abutilon theophrasti, ABUTH)
# assay-notes: Pre-emerge test, greenhouse herbicide activity screening
# Type: in vivo
# condition: pre-emerge, 63 g ai/ha, 14 days after application, scale 0-100

[
  {
    "smiles-record": "COc1c(Cl)cc(F)c(-n2c(=O)cc(C(F)(F)F)n(C)c2=O)c1NC(=O)COc1ccc(Cl)cc1Cl",
    "system-under-test": "velvetleaf (Abutilon theophrasti, ABUTH)",
    "phytotoxicity rating ABUTH": 100
  },
  {
    "smiles-record": "COc1cc2ccccc2cc1C(=O)Nc1c(OC)c(Cl)cc(F)c1-n1c(=O)cc(C(F)(F)F)n(C)c1=O",
    "system-under-test": "velvetleaf (Abutilon theophrasti, ABUTH)",
    "phytotoxicity rating ABUTH": 60
  },
  {
    "smiles-record": "COc1c(Cl)cc(F)c(-n2c(=O)cc(C(F)(F)F)n(C)c2=O)c1NC(=O)c1ccc2c(C#N)cccc2c1",
    "system-under-test": "velvetleaf (Abutilon theophrasti, ABUTH)",
    "phytotoxicity rating ABUTH": 95
  },
  {
    "smiles-record": "COc1c(Cl)cc(F)c(-n2c(=O)cc(C(F)(F)F)n(C)c2=O)c1NC(=O)COc1ccc(Cl)cc1",
    "system-under-test": "velvetleaf (Abutilon theophrasti, ABUTH)",
    "phytotoxicity rating ABUTH": 90
  }
]

---

# Test system: field corn (Zea mays L., var. Dekalb 535, CORN)
# assay-notes: Pre-emerge test, crop safety
# Assay type: in vivo
# condition: 250 g ai/ha; rating scale 0-100, 14 days after application
endpoint-name: Pre-emerge phytotoxicity rating, crop damage CORN

[
  {
    "compound": "COc1c(Cl)cc(F)c(-n2c(=O)cc(C(F)(F)F)n(C)c2=O)c1CC(Cl)C(=O)OCCOc1ccccc1 (single isomer, unassigned) [14-27]",
    "value-reported": 0
  },
  {
    "compound": "C=COC(=O)C(C)(Cl)Cc1c(OC)c(Cl)cc(F)c1-n1c(=O)cc(C(F)(F)F)n(C)c1=O (stereo not drawn) [14-42]",
    "value-reported": 20
  },
  {
    "compound": "COc1c(Cl)cc(F)c(-n2c(=O)cc(C(F)(F)F)n(C)c2=O)c1CC(C)(Cl)C(=O)OC(C)C (stereo not drawn) [14-39]",
    "value-reported": 0
  },
  {
    "compound": "COc1c(Cl)cc(F)c(-n2c(=O)cc(C(F)(F)F)n(C)c2=O)c1CC(Cl)C(=O)OCCC#N (stereo not drawn) [14-29]",
    "value-reported": 10
  },
  {
    "compound": "C#CCOC(=O)C(Cl)Cc1c(OC)c(Cl)cc(F)c1-n1c(=O)cc(C(F)(F)F)n(C)c1=O (single isomer, unassigned) [14-19]",
    "value-reported": 0
  },
  {
    "compound": "CCCCCCOC(=O)C(Cl)Cc1c(OC)c(Cl)cc(F)c1-n1c(=O)cc(C(F)(F)F)n(C)c1=O (single isomer, unassigned) [14-12]",
    "value-reported": 0
  },
  {
    "compound": "COc1c(Cl)cc(F)c(-n2c(=O)cc(C(F)(F)F)n(C)c2=O)c1CC(C)(Cl)C(=O)OCC(F)(F)C(F)F (stereo not drawn) [14-45]",
    "value-reported": 10
  },
  {
    "compound": "COc1c(Cl)cc(F)c(-n2c(=O)cc(C(F)(F)F)n(C)c2=O)c1CC(Cl)C(=O)OCC(C)C (single isomer, unassigned) [14-14]",
    "value-reported": 0
  },
  {
    "compound": "CCOCCOC(=O)C(Cl)Cc1c(OC)c(Cl)cc(F)c1-n1c(=O)cc(C(F)(F)F)n(C)c1=O (stereo not drawn) [14-26]",
    "value-reported": 50
  },
  {
    "compound": "COc1c(Cl)cc(F)c(-n2c(=O)cc(C(F)(F)F)n(C)c2=O)c1CC(Cl)C(=O)OCC(F)(F)C(F)F (stereo not drawn) [14-22]",
    "value-reported": 0
  },
  {
    "compound": "CCCCCOC(=O)C(C)(Cl)Cc1c(OC)c(Cl)cc(F)c1-n1c(=O)cc(C(F)(F)F)n(C)c1=O (stereo not drawn) [14-37]",
    "value-reported": 0
  },
  {
    "compound": "C#CCOC(=O)C(C)(Cl)Cc1c(OC)c(Cl)cc(F)c1-n1c(=O)cc(C(F)(F)F)n(C)c1=O (stereo not drawn) [14-44]",
    "value-reported": 0
  },
  {
    "compound": "COc1c(Cl)cc(F)c(-n2c(=O)cc(C(F)(F)F)n(C)c2=O)c1CC(Cl)C(=O)OCC(Br)CBr (single isomer, unassigned) [14-30]",
    "value-reported": 0
  },
  {
    "compound": "CCOC(=O)C(Br)Cc1c(OC)c(Cl)cc(F)c1-n1c(=O)cc(C(F)(F)F)n(C)c1=O (single isomer, unassigned) [14-32]",
    "value-reported": 0
  },
  {
    "compound": "COc1c(Cl)cc(F)c(-n2c(=O)cc(C(F)(F)F)n(C)c2=O)c1CC(Cl)C(=O)OC(C)(C)C (stereo not drawn) [14-18]",
    "value-reported": 0
  },
  {
    "compound": "Nc1c(O)c(Cl)cc(F)c1N1C(=O)C2CCCCN2C1=S (single isomer, unassigned) [12-3]",
    "value-reported": 0
  },
  {
    "compound": "CCCCOC(=O)C(Cl)Cc1c(OC)c(Cl)cc(F)c1-n1c(=O)cc(C(F)(F)F)n(C)c1=O (single isomer, unassigned) [14-9]",
    "value-reported": 75
  },
  {
    "compound": "CCCOC(=O)C(C)(Cl)Cc1c(OC)c(Cl)cc(F)c1-n1c(=O)cc(C(F)(F)F)n(C)c1=O (stereo not drawn) [14-35]",
    "value-reported": 25
  },
  {
    "compound": "Nc1c(O)c(Cl)cc(F)c1N1C(=O)C2CCCCN2C1=S (single isomer, unassigned) [12-2]",
    "value-reported": 99
  },
  {
    "compound": "COc1c(Cl)cc(F)c(-n2c(=O)cc(C(F)(F)F)n(C)c2=O)c1CC(Cl)C(=O)OCCOc1ccccc1 (single isomer, unassigned) [14-28]",
    "value-reported": 20
  },
  {
    "compound": "CCCCOC(=O)C(C)(Cl)Cc1c(OC)c(Cl)cc(F)c1-n1c(=O)cc(C(F)(F)F)n(C)c1=O (stereo not drawn) [14-36]",
    "value-reported": 10
  },
  {
    "compound": "COc1c(Cl)cc(F)c(-n2c(=O)cc(C(F)(F)F)n(C)c2=O)c1CC(C)(Cl)C(=O)OCC(C)C (stereo not drawn) [14-40]",
    "value-reported": 0
  },
  {
    "compound": "COc1c(Cl)cc(F)c(-n2c(=O)cc(C(F)(F)F)n(C)c2=O)c1CC(Cl)C(=O)OCC(F)(F)F (stereo not drawn) [14-21]",
    "value-reported": 70
  },
  {
    "compound": "COc1c(Cl)cc(F)c(-n2c(=O)cc(C(F)(F)F)n(C)c2=O)c1CC(Cl)C(=O)OCC(F)(F)C(F)(F)C(F)(F)F (single isomer, unassigned) [14-24]",
    "value-reported": 0
  },
  {
    "compound": "COc1c(Cl)cc(F)c(-n2c(=O)cc(C(F)(F)F)n(C)c2=O)c1CC(Cl)C(=O)OCCC(C)C (single isomer, unassigned) [14-16]",
    "value-reported": 0
  },
  {
    "compound": "CCCOC(=O)C(Cl)Cc1c(OC)c(Cl)cc(F)c1-n1c(=O)cc(C(F)(F)F)n(C)c1=O (single isomer, unassigned) [14-7]",
    "value-reported": 90
  },
  {
    "compound": "CCCCCOC(=O)C(Cl)Cc1c(OC)c(Cl)cc(F)c1-n1c(=O)cc(C(F)(F)F)n(C)c1=O (single isomer, unassigned) [14-10]",
    "value-reported": 40
  }
]
